# assay.notes: A: acetonitrile + 0.1% formic acid + 10 mM ammonium formate; B: 5% water + 95% acetonitrile + 0.1% formic acid + 10 mM ammonium formate; gradient (min/%B) 0/10 2/10 22/100 27/100 27.1/10
# experimental.parameters: stereoisomer not certain
property.label: LC retention time (min)

Worked set:
[[record]]
compound = "N[C@@H](Cc1cc(I)c(Oc2ccc(O)cc2)c(I)c1)C(=O)O"
observed_value = 3.63

[[record]]
compound = "O=C(O)CCCCCCC(=O)O"
observed_value = 0.712

[[record]]
compound = "NC[C@@H](O)CC(=O)O [(S)-(+)-4-Amino-3-hydroxybutyric acid]"
observed_value = 6.5


(P) NC(N)=NC(=O)c1nc(Cl)c(N)nc1N [Amiloride]
(Q) O=C(O)C1CCCCN1 (stereo not drawn) [L(-)-Pipecolinic acid]
Incoming: Which value of LC retention time is smaller, the one for P or the one for Q ? Mark your answer with the label of the selected entry.
Outgoing: P

(I) Nc1ccn(C2OC(COP(=O)(O)O)C(O)C2O)c(=O)n1 (centres undefined) [Cytidine 5'-monophosphate]
(II) COC(=O)C1=C(C)NC(C)=C(C(=O)OCCN(C)Cc2ccccc2)C1c1cccc([N+](=O)[O-])c1 (centres undefined)
Incoming: Which value of LC retention time is smaller, the one for I or the one for II ? Mark your answer with the label of the selected entry.
Outgoing: II
(II: 0.714 min, I: 7.4 min)

----------
# assay.notes: A: acetonitrile + 0.1% formic acid + 10 mM ammonium formate; B: 5% water + 95% acetonitrile + 0.1% formic acid + 10 mM ammonium formate; gradient (min/%B) 0/10 2/10 22/100 27/100 27.1/10
# experimental.parameters: stereoisomer not certain
property.label: LC retention time (min)

Worked set:
[[record]]
compound = "COC(=O)C(Cc1ccccc1)NC(=O)C(N)CC(=O)O (stereo not given)"
property_label = "LC retention time"
unit_annotation = "min"
observed_value = 4

[[record]]
compound = "NC(=O)CC[C@H](N)C(=O)O"
property_label = "LC retention time"
unit_annotation = "min"
observed_value = 6.54

[[record]]
compound = "O=C(O)c1ccc(=O)[nH]c1 [6-Hydroxynicotinic acid]"
property_label = "LC retention time"
unit_annotation = "min"
observed_value = 5.17


(I) Cn1c(=O)[nH]c(=O)c2[nH]cnc21
(II) OCC1OC(OCC2OC(O)C(O)C(O)C2O)C(O)C(O)C1O (stereo not given)
Incoming: Which value of LC retention time is smaller, the one for I or the one for II ? Mark your answer with the label of the selected entry.
Outgoing: I

(A) C[N+](C)(C)CCOP(=O)(O)OP(=O)([O-])OCC1OC(n2ccc(N)nc2=O)C(O)C1O (stereo not given)
(B) Cn1c(=O)c2c(ncn2C)n(C)c1=O
Incoming: Which one would you say has the larger LC retention time value: A , or B ? Mark your answer with the label of the selected entry.
Outgoing: A
(A: 8.51 min, B: 0.477 min)

----------
# assay.notes: A: acetonitrile + 0.1% formic acid + 10 mM ammonium formate; B: 5% water + 95% acetonitrile + 0.1% formic acid + 10 mM ammonium formate; gradient (min/%B) 0/10 2/10 22/100 27/100 27.1/10
# experimental.parameters: stereoisomer not certain
property.label: LC retention time (min)

Worked set:
[[record]]
compound = "NCCCNCCCCNCCCN"
observed_value = 9.6

[[record]]
compound = "CC(CN1c2ccccc2Sc2ccccc21)N(C)C (centres undefined)"
observed_value = 0.952

[[record]]
compound = "CC(=O)c1c(O)cc(C)oc1=O [DehydroacetIc acid]"
observed_value = 0.444


(I) CC12CCC(=O)C=C1C=CC1C2CCC2(C)C1CCC21CCC(=O)O1 (centres undefined)
(II) CC(C)[C@H](N)C(=O)O
Incoming: Which one would you say has the larger LC retention time value: I , or II ? Mark your answer with the label of the selected entry.
Outgoing: II

(I) COC(=O)CCCC(=O)O [Monomethyl glutarate]
(II) CC(=O)NC(CCCCN)C(=O)O (centres undefined)
Incoming: Which one would you say has the larger LC retention time value: I , or II ? Mark your answer with the label of the selected entry.
Outgoing: II

(A) CCc1ccc(CCOc2ccc(CC3SC(=O)NC3=O)cc2)nc1 (centres undefined)
(B) OCC(O)C(O)C(OC1OC(CO)C(O)C(O)C1O)C(O)CO (centres undefined)
(C) CN(C)CCC=C1c2ccccc2COc2ccccc21 [Doxepin]
(D) O=c1[nH]c(=O)c2cn[nH]c2[nH]1
(E) CC1OC(OC2C(Oc3cc(O)c4c(c3)OC(c3ccc(O)cc3)CC4=O)OC(CO)C(O)C2O)C(O)C(O)C1O (centres undefined)
Incoming: List from greatest to least LC retention time. Please list the labels in the order you were asked to rank them.
Outgoing: B, E, D, C, A
(B: 6.59 min, E: 3.67 min, D: 1.88 min, C: 1.04 min, A: 0.47 min)

----------
# assay.notes: A: acetonitrile + 0.1% formic acid + 10 mM ammonium formate; B: 5% water + 95% acetonitrile + 0.1% formic acid + 10 mM ammonium formate; gradient (min/%B) 0/10 2/10 22/100 27/100 27.1/10
# experimental.parameters: stereoisomer not certain
property.label: LC retention time (min)

[[record]]
compound = "Cn1cncc1CC(NC(=O)CCN)C(=O)O (centres undefined)"
observed_value = 7.92

[[record]]
compound = "Nc1ccccc1C(=O)CC(N)C(=O)O (centres undefined)"
observed_value = 4.67

[[record]]
compound = "OCCN1CCN(CCCN2c3ccccc3Sc3ccc(Cl)cc32)CC1"
observed_value = 1.55

[[record]]
compound = "C=C(C)C1Cc2c(ccc3c2OC2COc4cc(OC)c(OC)cc4C2C3=O)O1 (centres undefined)"
observed_value = 0.416

[[record]]
compound = "N[C@@H](Cc1ccc(O)c([N+](=O)[O-])c1)C(=O)O"
observed_value = 4.76

[[record]]
compound = "N[C@@H](Cc1ccccc1)C(=O)O"
observed_value = 4.83


(a) CC(CCC(=O)NCC(=O)O)C1CCC2C3C(O)CC4CC(O)CCC4(C)C3CC(O)C12C (centres undefined)
(b) Nc1ccc(O)c(C(=O)O)c1
(c) O=c1[nH]c(=O)c2ncn(C3OC(COP(=O)(O)O)C(O)C3O)c2[nH]1 (centres undefined) [Xanthosine 5'-monophosphate]
Incoming: // smallest LC retention time at index 0, largest at the end Please list the labels in the order you were asked to rank them.
Outgoing: b, a, c
(b: 1.82 min, a: 4.17 min, c: 7.42 min)

----------
# assay.notes: A: acetonitrile + 0.1% formic acid + 10 mM ammonium formate; B: 5% water + 95% acetonitrile + 0.1% formic acid + 10 mM ammonium formate; gradient (min/%B) 0/10 2/10 22/100 27/100 27.1/10
# experimental.parameters: stereoisomer not certain
property.label: LC retention time (min)

Worked set:
[[record]]
molecule = "CNC(=C[N+](=O)[O-])NCCSCc1csc(CN(C)C)n1 [Nizatidine]"
property_label = "LC retention time"
observed_value = 3.03

[[record]]
molecule = "O=C(C=Cc1ccccc1)OCc1ccccc1 [Benzyl cinnamate]"
property_label = "LC retention time"
observed_value = 0.413

[[record]]
molecule = "NC(=O)Cc1c[nH]c2ccccc12 [Indole-3-acetamide]"
property_label = "LC retention time"
observed_value = 0.475

[[record]]
molecule = "CC(C)CCCC(C)C1CCC2C3CCC4=CC(=O)CCC4(C)C3CCC12C (single isomer, unassigned; (+)) [(+)-4-Cholesten-3-one]"
property_label = "LC retention time"
observed_value = 0.407

[[record]]
molecule = "N[C@@H](CO)C(=O)O [L-Serine]"
property_label = "LC retention time"
observed_value = 6.56


(P) O=C(O)CCCCC1SCC2NC(=O)NC21 (stereo not given) [Biotin]
(Q) CCCCCCC(N)C(=O)O (stereo not given) [2-Aminooctanoic acid]
(R) CCN(CC)CCNC(=O)c1ccc(N)cc1 [Procainamide]
(S) COc1cc(/C=C/C(=O)O)ccc1O [Ferulic acid]
Incoming: // smallest LC retention time at index 0, largest at the end Please list the labels in the order you were asked to rank them.
Outgoing: S, P, R, Q
(S: 0.564 min, P: 1.17 min, R: 2.3 min, Q: 4.11 min)

(1) O=C(O)C(O)Cc1c[nH]c2ccccc12 (racemic) [DL-Indole-3-lactic acid]
(2) NCCS(=O)O [Hypotaurine]
(3) Cc1ccc(S(=O)(=O)NC(=O)NN2CC3CCCC3C2)cc1 (stereo not given) [Gliclazide]
(4) O=Cc1ccc(O)cc1 [4-Hydroxybenzaldehyde]
(5) CSCC[C@H](NC=O)C(=O)O [N-Formyl-L-methionine]
Incoming: // smallest LC retention time at index 0, largest at the end Please list the labels in the order you were asked to rank them.
Outgoing: 3, 1, 5, 4, 2

(1) CN(C)CCCN1c2ccccc2CCc2ccccc21 [Imipramine]
(2) CC(=O)N[C@@H](CCCN=C(N)N)C(=O)O [N-Acetyl-L-arginine]
(3) C=C1CCC(O)CC1=CC=C1CCCC2(C)C1CCC2C(C)CCCC(C)C (stereo not given) [Vitamin D3]
Incoming: List from greatest to least LC retention time. Please list the labels in the order you were asked to rank them.
Outgoing: 2, 1, 3
(2: 6.21 min, 1: 0.939 min, 3: 0.407 min)

(A) CC1=CCC2CC1C2(C)C (single isomer, unassigned; (-)) [(-)-alpha-Pinene]
(B) NC(N)=NCCC[C@H](N)C(=O)O [L-Arginine]
Incoming: Which one would you say has the larger LC retention time value: A , or B ? Mark your answer with the label of the selected entry.
Outgoing: B
(B: 7.48 min, A: 0.438 min)

This collection of values is drawn from the RepoRT retention time repository.
